Molecular target: T1, human CD98, endogenously expressed on Molt-4 human acute lymphoblastic leukemia cells (human)
T1 chain: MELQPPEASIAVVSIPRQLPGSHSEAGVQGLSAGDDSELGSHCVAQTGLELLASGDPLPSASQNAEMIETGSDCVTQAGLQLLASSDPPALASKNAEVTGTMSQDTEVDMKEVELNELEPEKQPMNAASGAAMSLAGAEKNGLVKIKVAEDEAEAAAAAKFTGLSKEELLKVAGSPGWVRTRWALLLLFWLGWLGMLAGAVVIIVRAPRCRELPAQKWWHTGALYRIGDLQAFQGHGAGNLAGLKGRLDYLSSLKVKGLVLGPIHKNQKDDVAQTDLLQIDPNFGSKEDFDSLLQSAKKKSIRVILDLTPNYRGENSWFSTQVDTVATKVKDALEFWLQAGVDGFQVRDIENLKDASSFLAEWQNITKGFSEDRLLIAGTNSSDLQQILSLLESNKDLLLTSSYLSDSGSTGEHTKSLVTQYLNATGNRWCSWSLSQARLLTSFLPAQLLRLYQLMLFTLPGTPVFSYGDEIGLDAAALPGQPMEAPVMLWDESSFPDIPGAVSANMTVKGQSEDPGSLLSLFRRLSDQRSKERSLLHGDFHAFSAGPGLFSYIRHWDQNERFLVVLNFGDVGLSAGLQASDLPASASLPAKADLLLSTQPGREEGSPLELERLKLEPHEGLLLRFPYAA
Test: cell-based or functional assay
measuredAttribute: Molt4 IC50 (nM), 50% inhibition of cell proliferation, 72 h, ATPlite
Report only the number, with the unit nM understood.

Answered examples (2):
CD98 (CL-huAb104)-XW (antibody, human IgG1, kappa, L234A L235A, V domains shown, synthon XW on reduced cysteine (see heavy chain); Bcl-xL inhibitor synthon XW on cysteines freed by TCEP reduction (Method G); DAR 3.1 by MS for the whole ADC) VH: EVQLVESGGGLVQPGGSLRLSCATSGFTFIDYYMSWVRQAPGKGLEWLGFIRNKAYGYTTEYSASVKGRFTISRDNSKSILYLQMNSLKTEDTAVYYCTRDRPAWFVYWGQGTLVTVSS VL: DIVMTQTPLSLPVTPGEPASISCKSSQSLLYSSNQKNYLAWYLQKPGQSPQLLIYWASTRESGVPDRFSGSGSGTDFTLKISRVEAEDVGVYYCQQYYSYPYTFGGGTKVEIKR :: 0.102
CD98 (CL-huAb102)-KZ (antibody, human IgG1, kappa, L234A L235A, V domains shown, synthon KZ on reduced cysteine (see heavy chain); Bcl-xL inhibitor synthon KZ on cysteines freed by TCEP reduction (Method A); DAR 2.8 by MS for the whole ADC) VH: EVQLVESGGGLVQPGGSLRLSCATSGFTFIDYYMSWVRQAPGKGLEWLGFIRNKANRYTTEYSASVKGRFTISRDNSKSILYLQMNSLKTEDTAVYYCTRDRPAWFVYWGQGTLVTVSS VL: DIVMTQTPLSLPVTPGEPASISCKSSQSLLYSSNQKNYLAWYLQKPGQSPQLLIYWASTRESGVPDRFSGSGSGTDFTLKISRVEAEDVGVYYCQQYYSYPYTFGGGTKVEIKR :: 0.062

Switching to the query record.
Molt4 IC50 (nM), 50% inhibition of cell proliferation, 72 h, ATPlite reported for this binder CD98 (CL-huAb104)-YG (antibody, human IgG1, kappa, L234A L235A, V domains shown, synthon YG on reduced cysteine (see heavy chain); Bcl-xL inhibitor synthon YG on cysteines freed by TCEP reduction (Method E); DAR 1.3 by MS for the whole ADC) VH: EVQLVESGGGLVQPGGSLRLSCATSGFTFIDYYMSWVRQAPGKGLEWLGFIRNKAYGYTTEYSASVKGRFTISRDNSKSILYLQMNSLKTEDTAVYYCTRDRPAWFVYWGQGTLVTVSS VL: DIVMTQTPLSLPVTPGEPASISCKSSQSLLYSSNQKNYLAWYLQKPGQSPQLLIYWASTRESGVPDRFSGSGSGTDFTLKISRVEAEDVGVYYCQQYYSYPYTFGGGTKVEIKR : 2.67
